- System: H460 (human lung cancer cell)
- assay_remarks: In vitro anti-tumor cellular activity (MTT), H460
- Type: cell-based
- condition_info: Homo sapiens, NCI-H460, 72 h, read-out: H460 IC50
Where a name gives a salt, the structure may show the parent alone.
Reported IC50 by item:

# compound, test_system, IC50
data = [
    ("COc1cc2c(Oc3ccc(NC(=O)c4nn(-c5c(Cl)cccc5Cl)c5ccccc5c4=O)cc3F)ccnc2cc1OCCCN1CCC(C)CC1", "H460 (human lung cancer cell)", "0.7 µg/mL"),
    ("COc1cc2c(Oc3ccc(NC(=O)c4nn(-c5cc(C(F)(F)F)ccc5Cl)c5ccccc5c4=O)cc3F)ccnc2cc1OCCCN1CCCC1", "H460 (human lung cancer cell)", "0.54 µg/mL"),
    ("COc1cc2c(Oc3ccc(NC(=O)c4nn(-c5c(Cl)cccc5Cl)c5ccccc5c4=O)cc3F)ccnc2cc1OCCCN1CCN(C)CC1", "H460 (human lung cancer cell)", "0.7 µg/mL"),
    ("COc1cc2c(Oc3ccc(NC(=O)c4nn(-c5ccc(Cl)cc5)c5ccccc5c4=O)cc3F)ccnc2cc1OCCCN1CCCCC1", "H460 (human lung cancer cell)", "0.06 µg/mL"),
    ("COc1cc2c(Oc3ccc(NC(=O)c4nn(-c5c(Cl)cccc5Cl)c5ccccc5c4=O)cc3F)ccnc2cc1OCCCN1CCCCC1", "H460 (human lung cancer cell)", "0.77 µg/mL"),
]

input: Field request: IC50 | item: COc1cc2c(Oc3ccc(NC(=O)c4nn(-c5ccccc5C(F)(F)F)c5ccccc5c4=O)cc3F)ccnc2cc1OCCCN1CCOCC1 [Example 4, dihydrochloride]
output: 1 µg/mL

input: Field request: IC50 | item: `COc1cc2c(Oc3ccc(NC(=O)c4nn(-c5ccc(Cl)cc5Cl)c5ccccc5c4=O)cc3F)ccnc2cc1OCCCN1CCCCC1`
output: 1.5 µg/mL

input: Field request: IC50 | item: `COc1cc2c(Oc3ccc(NC(=O)c4nn(-c5ccccc5Br)c5ccccc5c4=O)cc3F)ccnc2cc1OCCCN1CCN(C)CC1`
output: 2.5 µg/mL

input: Field request: IC50 | item: `COc1cc2c(Oc3ccc(NC(=O)c4nn(-c5ccc(F)cc5Br)c5ccccc5c4=O)cc3F)ccnc2cc1OCCCN1CCCC1`
output: 1.3 µg/mL

input: Field request: IC50 | item: `COc1cc2c(Oc3ccc(NC(=O)c4nn(-c5cccc(C(F)(F)F)c5)c5ccccc5c4=O)cc3F)ccnc2cc1OCCCN1CCCCC1`
output: 1.7 µg/mL

input: Field request: IC50 | item: `COc1cc2c(Oc3ccc(NC(=O)c4cn(-c5ccccc5Cl)c5ccccc5c4=O)cc3F)ccnc2cc1OCCCN1CCCC1`
output: 0.74 µg/mL

input: Field request: IC50 | item: `COc1cc2c(Oc3ccc(NC(=O)c4nn(-c5c(Cl)cccc5Cl)c5ccccc5c4=O)cc3F)ccnc2cc1OCCCN1CCCC1`
output: 0.77 µg/mL

input: Field request: IC50 | item: `COc1cc2c(Oc3ccc(NC(=O)c4nn(-c5ccc(Cl)cc5Cl)c5ccccc5c4=O)cc3F)ccnc2cc1OCCCN1CCN(C)CC1`
output: 0.53 µg/mL

###

Reported IC50 by item:
- Test system: SMMC-7721 (hepatoma cell)
- assay_remarks: In vitro anti-tumor cellular activity (MTT), SMMC-7721
- Type: cell-based, human
- condition_info: Homo sapiens, SMMC-7721, 72 h, read-out: SMMC-7721 IC50
Your reply should be a number followed by the unit it is expressed in.

Below, 5 compounds whose answers are already recorded.
# structure_notation, test_system, IC50
data = [
    ("COc1cc2c(Oc3ccc(NC(=O)c4nn(-c5cc(C(F)(F)F)ccc5Cl)c5ccccc5c4=O)cc3F)ccnc2cc1OCCCN1CCCC1", "SMMC-7721 (hepatoma cell)", "0.54 µg/mL"),
    ("COc1cc2c(Oc3ccc(NC(=O)c4nn(-c5ccccc5Cl)c5ccccc5c4=O)cc3F)ccnc2cc1OCCCN1CCOCC1", "SMMC-7721 (hepatoma cell)", "1.6 µg/mL"),
    ("COc1cc2c(Oc3ccc(NC(=O)c4nn(-c5ccc(C)cc5C)c5ccccc5c4=O)cc3F)ccnc2cc1OCCCN1CCCC1", "SMMC-7721 (hepatoma cell)", "0.76 µg/mL"),
    ("COc1cc2c(Oc3ccc(NC(=O)c4nn(-c5ccc(Cl)cc5Cl)c5ccccc5c4=O)cc3F)ccnc2cc1OCCCN1CCN(C)CC1", "SMMC-7721 (hepatoma cell)", "1.8 µg/mL"),
    ("COc1cc2c(Oc3ccc(NC(=O)c4nn(-c5c(Cl)cccc5Cl)c5ccccc5c4=O)cc3F)ccnc2cc1OCCCN1CCCC1", "SMMC-7721 (hepatoma cell)", "0.33 µg/mL"),
]

// switching to the query compound
input: Field request: IC50 | item: `COc1cc2c(Oc3ccc(NC(=O)c4nn(-c5ccccc5Br)c5ccccc5c4=O)cc3F)ccnc2cc1OCCCN1CCOCC1`
output: 1.5 µg/mL

###

Reported IC50 by item:
- Test system: U87MG (Human malignant glioblastoma cells)
- assay_remarks: In vitro anti-tumor cellular activity (MTT), U87MG
- Assay type: cell-based
- condition_info: Homo sapiens, U-87 MG, 72 h, read-out: U87MG IC50
Structures can show the parent of a compound that is named as a salt.
Your answer is read as µg/mL, so omit the unit and give the number.

Below, 2 molecules whose answers are already recorded.
# molecule, test_value
measured = [
    ("COc1cc2c(Oc3ccc(NC(=O)c4nn(-c5cc(C(F)(F)F)ccc5Cl)c5ccccc5c4=O)cc3F)ccnc2cc1OCCCN1CCCC1", 0.96),
    ("COc1cc2c(Oc3ccc(NC(=O)c4nn(-c5ccccc5Br)c5ccccc5c4=O)cc3F)ccnc2cc1OCCCN1CCN(C)CC1", 1.3),
]

input: Record COc1cc2c(Oc3ccc(NC(=O)c4nn(-c5ccccc5C(F)(F)F)c5ccccc5c4=O)cc3F)ccnc2cc1OCCCN1CCOCC1 [Example 4, dihydrochloride] : what is its IC50 with U87MG (Human malignant glioblastoma cells)?
output: 0.8

input: Record `COc1cc2c(Oc3ccc(NC(=O)c4nn(-c5ccc(F)cc5Br)c5ccccc5c4=O)cc3F)ccnc2cc1OCCCN1CCCC1` : what is its IC50 with U87MG (Human malignant glioblastoma cells)?
output: 0.8

input: Record `COc1cc2c(Oc3ccc(NC(=O)c4nn(-c5ccc(C)cc5C)c5ccccc5c4=O)cc3F)ccnc2cc1OCCCN1CCCC1` : what is its IC50 with U87MG (Human malignant glioblastoma cells)?
output: 2.9

input: Record `COc1cc2c(Oc3ccc(NC(=O)c4nn(-c5cccc(C(F)(F)F)c5)c5ccccc5c4=O)cc3F)ccnc2cc1OCCCN1CCCCC1` : what is its IC50 with U87MG (Human malignant glioblastoma cells)?
output: 1.4

###

- test_system: c-Met (His-tagged recombinant human Met (Amino acids 974-ends)) (Homo sapiens, UniProt P08581)
- Construct: His-tagged recombinant human Met (Amino acids 974-ends); His
- Sequence (P08581 974-1390 limits assumed): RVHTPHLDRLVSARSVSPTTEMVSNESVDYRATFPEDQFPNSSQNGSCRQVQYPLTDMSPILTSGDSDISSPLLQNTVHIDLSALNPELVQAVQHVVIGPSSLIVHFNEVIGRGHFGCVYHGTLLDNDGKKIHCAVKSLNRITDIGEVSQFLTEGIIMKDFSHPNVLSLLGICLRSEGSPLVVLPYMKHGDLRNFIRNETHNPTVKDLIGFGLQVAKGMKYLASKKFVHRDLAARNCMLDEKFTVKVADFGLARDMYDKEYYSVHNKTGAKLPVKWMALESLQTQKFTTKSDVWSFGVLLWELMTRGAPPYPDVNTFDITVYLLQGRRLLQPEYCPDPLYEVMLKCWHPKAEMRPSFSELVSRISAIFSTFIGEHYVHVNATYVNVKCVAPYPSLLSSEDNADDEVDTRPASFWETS
- assay_remarks: c-Met kinase assay (ELISA)
- condition_info: 50 pM c-Met, 5 μM ATP, 20 min
Reported pIC50 by item:
Scale note: pIC50 = -log10(concentration in M).

# structure_notation, pIC50
data = [
    ("COc1cc2c(Oc3ccc(NC(=O)c4cn(-c5ccccc5C(F)(F)F)c5ccccc5c4=O)cc3F)ccnc2cc1OCCCN1CCC(C)CC1", 5.97),
    ("COc1cc2c(Oc3ccc(NC(=O)c4cn(-c5ccccc5Cl)c5ccccc5c4=O)cc3F)ccnc2cc1OCCCN1CCN(C)CC1", 6.86),
    ("COc1cc2c(Oc3ccc(NC(=O)c4nn(-c5cc(C(F)(F)F)ccc5Cl)c5ccccc5c4=O)cc3F)ccnc2cc1OCCCN1CCN(C)CC1", 6.39),
    ("COc1cc2c(Oc3ccc(NC(=O)c4nn(-c5cc(C(F)(F)F)ccc5Cl)c5ccccc5c4=O)cc3F)ccnc2cc1OCCCN1CCCCC1", 5.71),
    ("COc1cc2c(Oc3ccc(NC(=O)c4cn(-c5ccccc5Cl)c5ccccc5c4=O)cc3F)ccnc2cc1OCCCN1CCCC1", 5.89),
]

input: Field request: pIC50 | item: `COc1cc2c(Oc3ccc(NC(=O)c4cn(-c5ccccc5F)c5ccccc5c4=O)cc3F)ccnc2cc1OCCCN1CCN(C)CC1`
output: 5.64

###

Reported IC50 by item:
- Tested on: H460 (human lung cancer cell)
- assay_remarks: In vitro anti-tumor cellular activity (MTT), H460
- Format: cell-based
- condition_info: Homo sapiens, NCI-H460, 72 h, read-out: H460 IC50
Your reply should be a number followed by the unit it is expressed in.

# compound, IC50
rows = [
    ("COc1cc2c(Oc3ccc(NC(=O)c4nn(-c5ccccc5OC(F)(F)F)c5ccccc5c4=O)cc3F)ccnc2cc1OCCCN1CCOCC1 [Example 37]", "1.9 mg/L"),
]

input: Field request: IC50 | item: COc1cc2c(Oc3ccc(NC(=O)c4nn(-c5ccccc5Br)c5ccccc5c4=O)cc3F)ccnc2cc1OCCCN1CCOCC1 [Example 34]
output: 0.7 mg/L

input: Field request: IC50 | item: COc1cc2c(Oc3ccc(NC(=O)c4nn(-c5ccc(Br)cc5)c5ccccc5c4=O)cc3F)ccnc2cc1OCCCN1CCCCC1.Cl.Cl [Example 3]
output: 0.3 mg/L

input: Field request: IC50 | item: COc1cc2c(Oc3ccc(NC(=O)c4nn(-c5ccc(C)cc5C)c5ccccc5c4=O)cc3F)ccnc2cc1OCCCN1CCCC1 [Example 25]
output: 0.89 mg/L

input: Field request: IC50 | item: COc1cc2c(Oc3ccc(NC(=O)c4nn(-c5cccc(F)c5)c5ccccc5c4=O)cc3F)ccnc2cc1OCCCN1CCCCC1 [Example 9]
output: 0.007 mg/L

input: Field request: IC50 | item: COc1cc2c(Oc3ccc(NC(=O)c4nn(-c5ccc(Cl)cc5Cl)c5ccccc5c4=O)cc3F)cnnc2cc1OCCCN1CCCC1 [Example 70]
output: 2.6 mg/L
